target: STAT5b Arg566Trp/Met639Asn/Met644Lys (STAT5b‐3M) (Homo sapiens, UniProt P51692, M639N/M644K/R566W); assay: Fluorescence polarization assay, triple mutant STAT5b-3M; conditions: FP assay
measured_quantity: pKi
Remember, pKi is on a log scale: it is -log10 of the molar concentration.

Prompt line: Could you share which pKi value was measured for COc1cc(-c2cc(OP(=O)(O)O)cc(-c3cc(OC)c(OC)c(OC)c3)c2)cc(OC)c1OC ?
Response line: 4.31

----------
molecular target: STAT5b Arg566Trp/Met639Asn/Met644Lys (STAT5b‐3M) (Homo sapiens, UniProt P51692, M639N/M644K/R566W); experiment: Fluorescence polarization assay, triple mutant STAT5b-3M; conditions: FP assay
measured_quantity: pIC50
Remember, pIC50 is on a log scale: it is -log10 of the molar concentration.

Prompt line: Could you share which pIC50 value was measured for COc1cc(-c2cc(OP(=O)(O)O)cc(-c3cc(OC)c(OC)c(OC)c3)c2)cc(OC)c1OC [Compound 20] ?
Response line: 4.00

----------
target: STAT3 (Homo sapiens, UniProt P40763); experiment: Fluorescence polarization competitive binding assay, STAT3 SH2 domain; conditions: read-out: Inhibition of STAT3 at 100 µM
Sequence (P40763 whole entry, species assumed, the tested form may be a part): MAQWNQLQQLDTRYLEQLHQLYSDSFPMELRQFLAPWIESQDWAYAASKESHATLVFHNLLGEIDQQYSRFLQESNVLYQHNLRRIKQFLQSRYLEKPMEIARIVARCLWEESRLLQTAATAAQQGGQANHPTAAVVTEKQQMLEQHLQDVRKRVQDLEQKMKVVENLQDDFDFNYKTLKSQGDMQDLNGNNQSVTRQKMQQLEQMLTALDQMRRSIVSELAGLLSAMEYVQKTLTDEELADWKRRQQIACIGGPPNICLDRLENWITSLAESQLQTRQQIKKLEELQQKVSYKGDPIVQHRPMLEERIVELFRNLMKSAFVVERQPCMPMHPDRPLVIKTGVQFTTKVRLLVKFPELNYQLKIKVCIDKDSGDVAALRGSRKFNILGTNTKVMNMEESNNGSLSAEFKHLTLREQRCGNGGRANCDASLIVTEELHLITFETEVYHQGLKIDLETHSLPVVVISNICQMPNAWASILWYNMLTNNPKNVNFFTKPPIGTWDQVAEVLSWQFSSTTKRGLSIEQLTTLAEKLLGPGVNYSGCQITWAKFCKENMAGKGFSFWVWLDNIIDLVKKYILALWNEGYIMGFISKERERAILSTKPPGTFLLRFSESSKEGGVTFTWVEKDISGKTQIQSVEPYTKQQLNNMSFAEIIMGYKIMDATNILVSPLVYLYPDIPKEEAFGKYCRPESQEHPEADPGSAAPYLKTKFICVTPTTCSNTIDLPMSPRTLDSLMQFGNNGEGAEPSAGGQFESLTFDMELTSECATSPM
measured_quantity: inhibition at 100 µM (%)
Respond numerically; units are % and should not be typed.

compound_string	measured_result
O=C(Nc1cccc(OP(=O)(O)O)c1)c1cccc(S(=O)(=O)N2CCCC2)c1	3

Prompt line: Could you share which inhibition at 100 µM value was measured for CC(=O)Nc1ccc(C=CC(=O)c2cccc(OP(=O)(O)O)c2)cc1 ?
Response line: 29

Prompt line: Could you share which inhibition at 100 µM value was measured for CN(C1CCCCC1)S(=O)(=O)c1cccc(C(=O)N2CCN(c3ccc(OP(=O)(O)O)cc3)CC2)c1 ?
Response line: 33

Prompt line: Could you share which inhibition at 100 µM value was measured for O=C(C=Cc1ccccc1C(F)(F)F)c1cccc(OP(=O)(O)O)c1 ?
Response line: 53

----------
target: STAT5b Arg566Trp/Gln636Pro/Met639Asn/Phe640Leu/Met644Lys/Asn664Ser/Tyr679Phe (STAT5b‐7M) (Homo sapiens, UniProt P51692, F640L/M639N/M644K/N664S/Q636P/R566W/Y679F); test: Fluorescence polarization assay, mutant STAT5b-7M; conditions: FP assay
measured_quantity: IC50
Entry format: amount then unit.

Prompt line: Could you share which IC50 value was measured for COc1cc(-c2cc(OP(=O)(O)O)cc(-c3cc(OC)c(OC)c(OC)c3)c2)cc(OC)c1OC ?
Response line: 42.6 µM

----------
Recorded inhibition at 200 µM for the following compounds
target: STAT3 (Homo sapiens, UniProt P40763); assay: Fluorescence polarization competitive binding assay, STAT3 SH2 domain; conditions: read-out: STAT3 inhibition at 200 μM
Respond numerically; units are % and should not be typed.

Use these answered entries as a reference point.
compound	measured_result
COc1ccc(-c2cc(OP(=O)(O)O)cc(-c3ccc(OC)c(OC)c3)c2)cc1OC [Compound 15]	43
O=P(O)(O)Oc1cc(-c2ccccc2)cc(-c2ccccc2)c1 [Compound 11]	48
COc1ccccc1-c1cc(OP(=O)(O)O)cc(-c2ccccc2OC)c1 [Compound 14]	28
COc1cc(-c2cccc(OP(=O)(O)O)c2)cc(OC)c1OC [Compound 23]	40
COc1cc(-c2cc(OP(=O)(O)O)cc(-c3cc(OC)c(OC)c(OC)c3)c2)cc(OC)c1OC [Compound 20]	27
COc1cc(OC)cc(-c2cc(OP(=O)(O)O)cc(-c3cc(OC)cc(OC)c3)c2)c1 [Compound 17]	50
COc1cccc(-c2cc(OP(=O)(O)O)cc(-c3cccc(OC)c3OC)c2)c1OC [Compound 16]	15
COc1cccc(-c2cc(OP(=O)(O)O)cc(-c3cccc(OC)c3)c2)c1 [Compound 13]	51

Consider now this further compound.
Prompt line: # value lookup — system STAT3 (Homo sapiens, UniProt P40763), readout inhibition at 200 µM, item COc1ccc(-c2cc(OP(=O)(O)O)cc(-c3ccc(OC)c(OC)c3OC)c2)c(OC)c1OC [Compound 21]
Response line: 15

----------
Recorded inhibition at 100 µM for the following compounds
Molecular target: STAT5b (Homo sapiens, UniProt P51692)
Construct: made in house
Sequence (P51692 1-787): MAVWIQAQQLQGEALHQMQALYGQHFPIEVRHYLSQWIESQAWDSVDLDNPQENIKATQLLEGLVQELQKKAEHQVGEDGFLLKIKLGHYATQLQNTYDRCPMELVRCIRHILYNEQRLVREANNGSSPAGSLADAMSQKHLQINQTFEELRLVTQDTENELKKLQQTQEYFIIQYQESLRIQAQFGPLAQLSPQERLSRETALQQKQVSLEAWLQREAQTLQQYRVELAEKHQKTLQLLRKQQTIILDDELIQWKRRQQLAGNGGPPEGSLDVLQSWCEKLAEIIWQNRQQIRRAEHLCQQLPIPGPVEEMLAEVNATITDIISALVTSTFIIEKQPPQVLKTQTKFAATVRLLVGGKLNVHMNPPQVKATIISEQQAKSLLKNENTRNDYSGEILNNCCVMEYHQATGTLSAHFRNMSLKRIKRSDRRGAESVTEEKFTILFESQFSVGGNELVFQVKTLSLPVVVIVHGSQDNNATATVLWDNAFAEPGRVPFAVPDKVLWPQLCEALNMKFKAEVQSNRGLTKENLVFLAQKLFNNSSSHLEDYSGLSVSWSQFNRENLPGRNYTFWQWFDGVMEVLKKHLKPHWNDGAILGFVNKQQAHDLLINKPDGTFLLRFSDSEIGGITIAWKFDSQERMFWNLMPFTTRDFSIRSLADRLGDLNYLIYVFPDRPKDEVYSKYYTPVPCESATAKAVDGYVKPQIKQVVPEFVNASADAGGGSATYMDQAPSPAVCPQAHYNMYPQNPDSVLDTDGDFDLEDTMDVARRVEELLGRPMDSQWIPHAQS
Experiment: Fluorescence polarization competitive binding assay, STAT5b
Conditions: read-out: Inhibition of STAT5b at 100 µM
Respond numerically; units are % and should not be typed.

Use these answered entries as a reference point.
compound	result_units	inhibition at 100 µM
COc1ccc(-c2cc(OP(=O)(O)O)cc(-c3ccc(Cl)cc3)c2)cc1 [Compound 1]	%	73
CC(=O)Nc1ccc(C=CC(=O)c2cccc(OP(=O)(O)O)c2)cc1 [Compound 4]	%	52
O=C(C=Cc1ccccc1C(F)(F)F)c1cccc(OP(=O)(O)O)c1 [Compound 3]	%	31

Prompt line: Could you share which inhibition at 100 µM value was measured for O=C(Cn1ccc2ccccc21)Nc1cccc(OP(=O)(O)O)c1 [Compound 6] ?
Response line: 24

----------
molecular target: STAT3 (Homo sapiens); experiment: Fluorescence polarization competitive binding assay, STAT3 SH2 domain; conditions: read-out: Inhibition of STAT3 at 100 µM
measured_quantity: inhibition at 100 µM (%)
Respond numerically; units are % and should not be typed.

molecule	inhibition at 100 µM [%]
COc1ccc(-c2cc(OP(=O)(O)O)cc(-c3ccc(Cl)cc3)c2)cc1 [Compound 1]	43

Prompt line: Could you share which inhibition at 100 µM value was measured for O=C(c1ccc([N+](=O)[O-])cc1)c1coc2ccc(OP(=O)(O)O)cc12 [Compound 5] ?
Response line: 26

Prompt line: Could you share which inhibition at 100 µM value was measured for O=C(C=Cc1c(F)c(F)c(F)c(F)c1F)c1cccc(OP(=O)(O)O)c1 [Compound 2] ?
Response line: 43

Prompt line: Could you share which inhibition at 100 µM value was measured for O=C(Cn1ccc2ccccc21)Nc1cccc(OP(=O)(O)O)c1 [Compound 6] ?
Response line: 11

Reference for the values: paper PMC6973011
